# assay-summary: Tmax in kidney of mice at the oral dose of 50 mg/kg
# Format: ADME, organism-based
# Parameters: dose 50 mg/kg, route oral
# stated-conditions: mouse
property-label: Tmax (h)
Lab book: enter the figure in h, no units written.

GET /value?item= CC[C@H]1OC(=O)C[C@@H](O)[C@H](C)[C@@H](OC2OC(C)C(O)C(N(C)C)C2O)[C@@H](C/C=C/C(C)=O)C[C@@H](C)C(=O)/C=C/C(C)=C/[C@@H]1COC1OC(C)C(O)C(OC)C1OC (stereo partly specified) &field=Tmax returns 2

---

# Test system: Enterococcus faecalis
# assay-summary: Antibacterial activity against Enterococcus faecalis ATCC 29212
# Type: functional
Task for the reader: assign each of the following compounds its reported MIC.
Lab book: enter the figure in µg/mL, no units written.

GET /value?item= CC[C@H]1OC(=O)CC(=O)[C@H](C)[C@@H](O[C@@H]2O[C@@H](C)[C@@H](O)[C@@H](N(C)C)[C@H]2O)[C@H]2C[C@H](O)[C@@](C)(C2)C(=O)/C=C/C(C)=C/[C@@H]1CO[C@@H]1O[C@@H](C)[C@@H](O)[C@@H](OC)[C@@H]1OC &field=MIC returns 8

GET /value?item= CC[C@H]1OC(=O)C[C@@H](O)[C@H](C)[C@@H](OC2OC(C)C(OC3CC(C)(O)C(O)C(C)O3)C(N(C)C)C2O)[C@@H](CC=O)C[C@@H](C)C(=O)CCC(C)C[C@@H]1COC1OC(C)C(O)C(OC)C1OC (stereo partly specified) &field=MIC returns 16

GET /value?item= CC[C@H]1OC(=O)CC(=O)[C@H](C)[C@@H](O[C@@H]2O[C@@H](C)[C@@H](O)[C@@H](N(C)C)[C@H]2O)[C@H]2C[C@@H](O)[C@](C)(C2)C(=O)/C=C/C(C)=C/[C@@H]1CO[C@@H]1O[C@@H](C)[C@@H](O)[C@@H](OC)[C@@H]1OC &field=MIC returns 4

GET /value?item= CC[C@H]1OC(=O)C[C@@H](OC(C)=O)[C@H](C)[C@@H](OC2OC(C)C(O)C(N(C)C)C2O)[C@@H](CC=O)C[C@@H](C)C(=O)/C=C/C(C)=C/[C@@H]1COC1OC(C)C(O)C(OC)C1OC (stereo partly specified) &field=MIC returns 8

GET /value?item= CC[C@H]1O/C(O)=C/C(=O)[C@H](C)[C@@H](OC2OC(C)C(O)C(N(C)C)C2O)[C@@H](C/C=C/C(=O)OC)C[C@@H](C)C(=O)/C=C/C(C)=C/[C@@H]1COC1OC(C)C(O)C(OC)C1OC (stereo partly specified) &field=MIC returns 4

GET /value?item= CCOC(=O)/C=C/C[C@H]1C[C@@H](C)C(=O)/C=C/C(C)=C/[C@H](COC2OC(C)C(O)C(OC)C2OC)[C@@H](CC)OC(=O)C[C@@H](O)[C@H](C)[C@H]1OC1OC(C)C(O)C(N(C)C)C1O (stereo partly specified) &field=MIC returns 1

GET /value?item= CC[C@H]1OC(=O)C[C@@H](O)[C@H](C)[C@@H](O[C@@H]2O[C@H](C)[C@@H](O[C@H]3C[C@@](C)(O)[C@@H](O)[C@H](C)O3)[C@H](N(C)C)[C@H]2O)[C@@H](CC=O)C[C@@H](C)C(=O)/C=C/C(C)=C/[C@@H]1CO[C@@H]1O[C@H](C)[C@@H](O)[C@@H](OC)[C@H]1OC &field=MIC returns 1

GET /value?item= CCOC(=O)/C=C/C[C@H]1C[C@@H](C)C(=O)/C=C/C(C)=C/[C@H](COC2OC(C)C(O)C(OC)C2OC)[C@@H](CC)OC(=O)C[C@@H](OC(=O)Cc2ccc([N+](=O)[O-])cc2)[C@H](C)[C@H]1OC1OC(C)C(O)C(N(C)C)C1O (stereo partly specified) &field=MIC returns 2

GET /value?item= CC[C@H]1OC(=O)CC2(O)C(C=O)[C@@H](C[C@@H](C)C(=O)/C=C/C(C)=C/[C@@H]1CO[C@@H]1O[C@@H](C)[C@@H](O)[C@@H](OC)[C@@H]1OC)[C@H](O[C@@H]1O[C@@H](C)[C@@H](O)[C@@H](N(C)C)[C@H]1O)[C@H]2C (stereo partly specified) &field=MIC returns 16

GET /value?item= CC[C@H]1OC(=O)C[C@@H](O)[C@H](C)[C@@H](OC2OC(C)C(O)C(N(C)C)C2O)[C@@H](CC=O)C[C@@H](C)C(=O)CCC(C)C[C@@H]1COC1OC(C)C(O)C(OC)C1OC (stereo partly specified) &field=MIC returns 32

GET /value?item= CC[C@H]1OC(=O)C[C@@H](O)[C@H](C)[C@@H](OC2OC(C)C(O)C(N(C)C)C2O)[C@@H](C/C=C/C(=O)OC)C[C@@H](C)C(=O)/C=C/C(C)=C/[C@@H]1COC1OC(C)C(O)C(OC)C1OC (stereo partly specified) &field=MIC returns 0.5
